Readings of Metabolic Rate for the listed compounds
assay: Metabolic rate in human liver microsome; format: in vitro ADME; details: pooled human liver microsome, 1 mg/mL protein, NADPH production system, pH 7.4, 37° C., HPLC
Test Readout: Metabolic Rate (pmol/min/mg)

• C=C1/C(=C\C=C2/CCC[C@]3(C)[C@@H]([C@H](C)OC(=O)/C=C/C(C)(C)O)CC[C@@H]23)C[C@@H](O)C[C@@H]1O = 38
• C=C1/C(=C\C=C2/CCC[C@]3(C)[C@@H]([C@H](C)OC(=O)CCC(C)(C)O)CC[C@@H]23)C[C@@H](O)C[C@@H]1O = 78
• C=C1C(=CC=C2CCCC3(C)C2CCC3C(C)OC(=O)CCC(O)(CC)CC)CC(O)CC1O (stereo not shown) = 38
• C=C1C(=CC=C2CCCC3(C)C2CCC3C(C)OC(=O)CCCC(C)(C)O)CC(O)CC1O (stereo not shown) = 22
• C=C1/C(=C\C=C2/CCC[C@]3(C)[C@@H]([C@H](C)OCCC(C)(C)O)CC[C@@H]23)C[C@@H](O)C[C@@H]1O [Maxacalcitol, reference compound] = 10
• C=C1C(=CC=C2CCCC3(C)C2CCC3C(C)OC(=O)CCC2(O)CCCC2)CC(O)CC1O (stereo not shown) = 39
• C=C1C(=CC=C2CCCC3(C)C2CCC3C(C)OC(=O)C=CC(O)(CC)CC)CC(O)CC1O (stereo not shown) = 58

====

tested on: human acute myelogenous leukemia cell line HL-60; experiment: Ability to induce differentiation of HL-60 cells (oxygen radical production after phorbol ester stimulation, WST-1); assay type: cell-based; conditions: 72 hours incubation, then WST-1 and phorbol 12,13-didecanoate for 4 hours, absorbance at 450, read-out: EC50 (50%-maximal effect concentration), induction of HL-60 differentiation
pEC50: −log10 of the molar value.
Test Readout: pEC50

* C=C1/C(=C\C=C2/CCC[C@]3(C)[C@@H]([C@H](C)OC(=O)/C=C/C(C)(C)O)CC[C@@H]23)C[C@@H](O)C[C@@H]1O [Compound of Example 8] | 8.51
* C=C1C(=CC=C2CCCC3(C)C2CCC3C(C)OC(=O)CCC(O)(CC)CC)CC(O)CC1O (stereo not drawn) [Compound of Example 13] | 8.64
* C=C1C(=CC=C2CCCC3(C)C2CCC3C(C)OC(=O)CC(O)C(C)C)CC(O)CC1O (stereo not drawn) [Compound of Example 5] | 8.96

====

Readings of EC50 for the listed molecules
System: human acute myelogenous leukemia cell line HL-60
Assay: Ability to induce differentiation of HL-60 cells (oxygen radical production after phorbol ester stimulation, WST-1)
Format: cell-based
Conditions: 72 hours incubation, then WST-1 and phorbol 12,13-didecanoate for 4 hours, absorbance at 450, read-out: EC50 (50%-maximal effect concentration), induction of HL-60 differentiation
Excerpt: It has been known that human acute myelogenous leukemia cell line HL-60 is differentiated into a neutrophil-like cell by active form of vitamin D. Thus, the cells after the differentiation begin to express a surface marker such as CD11 and CD32 and, at the same time, they produce oxygen radical by stimulation with a phorbol ester. […]
Test Readout: EC50

- C=C1/C(=C\C=C2/CCC[C@]3(C)[C@@H]([C@H](C)OC(=O)CCC(C)(C)O)CC[C@@H]23)C[C@@H](O)C[C@@H]1O: 2 nM
- C=C1C(=CC=C2CCCC3(C)C2CCC3C(C)OC(=O)CCCC(C)(C)O)CC(O)CC1O (stereo not shown): 2.6 nM
- C=C1C(=CC=C2CCCC3(C)C2CCC3C(C)OC(=O)CC(C)(O)C(F)(F)F)CC(O)CC1O (stereo not shown): 0.21 nM
- C=C1C(=CC=C2CCCC3(C)C2CCC3C(C)OC(=O)CC(=O)C(O)(CC)CC)CC(O)CC1O (stereo not shown): 2.5 nM
- C=C1C(=CC=C2CCCC3(C)C2CCC3C(C)OC(=O)C=CC(O)(CC)CC)CC(O)CC1O (stereo not shown): 1.2 nM
- C=C1C(=CC=C2CCCC3(C)C2CCC3C(C)OC(=O)CC(=O)C(C)(C)O)CC(O)CC1O (stereo not shown): 3 nM
- C=C1C(=CC=C2CCCC3(C)C2CCC3C(C)OC(=O)CC(O)(C(F)(F)F)C(F)(F)F)CC(O)CC1O (stereo not shown): 0.44 nM
- C=C1C(=CC=C2CCCC3(C)C2CCC3C(C)OC(=O)CN(C)CC(C)(C)O)CC(O)CC1O (stereo not shown): 4 nM
- C=C1C(=CC=C2CCCC3(C)C2CCC3C(C)OC(=O)CC(CC)C(C)O)CC(O)CC1O (stereo not shown): 4.2 nM
- C=C1C(=CC=C2CCCC3(C)C2CCC3C(C)OC(=O)CCC2(O)CCCC2)CC(O)CC1O (stereo not shown): 1.7 nM
